- System: NCI-H522 lung
- Assay text: NCI tumour cell line growth inhibition, 48 h
Please respond with reported TGI for every item in the list.

>>> print(df.to_string())
                                compound    result
0  C[C@@]12C[C@@H](c3ccccc3O1)N1CCSC1=N2  > 100 µM

Here are 8 compounds. What values of TGI were reported for them?
1. NC(=O)c1ncn(C2OC(CO)C(O)C2O)n1 (stereo not given)
2. CCOC(=O)CC(=O)N(c1ccc(OC)cc1)C(C(=O)OC)c1ccccc1 (stereo not given)
3. COc1ccc2cc(-c3ccc(OC)c(OC)c3)c(=O)oc2c1
4. C/C=C1/CN2CCC34C5=CC(=O)C(c6cc7c(cc6OC)N(C)C6=C(C(=O)OC)CC8(CC)CCCN9CCC67C98)=CC5=NC23CCC1C4C(=O)OC (stereo not given)
5. Cn1c(=O)c2c(ncn2CCCCn2ccnc2[N+](=O)[O-])n(C)c1=O
6. O=[N+]([O-])c1ccccc1S(=O)(=O)c1ccccc1[N+](=O)[O-]
7. S=C(Nc1ccc(-c2nc3ccccc3s2)cc1)Nc1ccccn1
8. CCCCCCCCCCCCCCCCCC(=O)[O][Sn]([CH2]CCC)([CH2]CCC)[CH2]CCC

Output:
1. > 100 µM
2. > 100 µM
3. > 100 µM
4. 23.7 µM
5. > 100 µM
6. > 100 µM
7. > 61.3 µM
8. 0.318 µM

Task: In one line, give reported TGI of the entry `Cn1c(=O)c(Sc2ccccc2F)cc2cnc(NC3CCOCC3)nc21` .
Output: > 25 µM
